- target of assay: T1, cynomolgus monkey BCMA (cynomolgus monkey, UniProt A0A2K5UD97 1-53)
- T1 construct: Soluble analyte in SPR; construct not described; also called cyBCMA; Cyno BCMA
- T1 sequence (A0A2K5UD97 entry or part of it): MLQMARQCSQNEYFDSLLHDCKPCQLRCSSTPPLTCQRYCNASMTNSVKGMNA
- protocol description: SPR, IgG on chip, cyBCMA analyte
Listed here: items and their measured pKd.
Here pKd is given on a logarithmic scale as minus log10 of the concentration in mol/L.

Some solved cases for reference:
- binder: "COMBO_Rd4_0.6nM_C04 (antibody, V domains shown, IgG) VH: EVQLLESGGGLVQPGGSLRLSCAASGFTFSSYPMSWVRQAPGKGLEWVSAHIGSGGSTYYADSVKGRFTISRDNSKNTLYLQMNSLRAEDTAVYYCARYWPMDSWGQGTLVTVSS VL: EIVLTQSPGTLSLSPGERATLSCRASQSVSSTYLAWYQQKPGQAPRLLMYDASIRATGIPDRFSGSGSGTDFTLTISRLEPEDFAVYYCQQYQSWPLTFGQGTKVEIK"
  pKd: 10.41
- binder: "A02_Rd4_0.6nM_C18 (antibody, V domains shown, IgG) VH: EVQLLESGGGLVQPGGSLRLSCAASGFTFSSYAMNWVRQAPGKGLEWVSAVLDSGGSTYYADSVKGRFTISRDNSKNTLYLQMNSLRAEDTAVYYCARYWPMSLWGQGTLVTVSS VL: EIVLTQSPGTLSLSPGERATLSCRASQSVSELYLAWYQQKPGQAPRLLMYDASIRATGIPDRFSGSGSGTDFTLTISRLEPEDFAVYYCQQYFGWPLTFGQGTKVEIK"
  pKd: 9.71

Data request: Find the recorded pKd belonging to C01_Rd4_0.6nM_C16 (antibody, V domains shown, IgG) VH: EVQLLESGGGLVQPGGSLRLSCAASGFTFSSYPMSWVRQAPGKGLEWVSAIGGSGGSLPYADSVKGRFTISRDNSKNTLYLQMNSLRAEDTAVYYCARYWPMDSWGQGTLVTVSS VL: EIVLTQSPGTLSLSPGERATLSCRASQSVSSTYLAWYQQKPGQAPRLLIYDASSRAPGIPDRFSGSGSGTDFTLTISRLEPEDFAVYYCQQYSSWPLTFGQGTKVEIK and report it.
Data returned: 9.03
